# TEST_DETAILS: ATG_GLI_CIS: Attagene CIS-FACTORIAL HepG2 Assay for human Zinc Finger Protein GLI1 (AID 2282945)
# MEASUREMENT_CONTEXT: HepG2, Attagene cis-factorial reporter mRNA, GLI element; actives raise or lower the signal
Calls of active or inactive are those of the source. The calls were made as follows: active = hit-call score of the fitted dose curve at least 0.9, where 1 is the maximum; inactive = score below 0.9.
Classes to choose from: active, inactive

Recorded results for 5 molecules are shown here.
molecule=COc1ccc(C(=O)Nc2nc3ccccc3c(NCc3ccccc3)c2C#N)cc1 category=inactive
molecule="CCCCC(CC)CO (configuration not stated)" category=inactive
molecule=O=C(O)CN(CC(=O)O)CC(=O)O category=inactive
molecule=NC(=Nc1ccccc1)Nc1ccccc1 category=inactive
molecule=CCCCCCCCCCCCCCCCO category=inactive

query: Called result for O=C(O)c1cccnc1
result: inactive

query: Called result for CC(=O)OCC(COC(C)=O)OC(C)=O
result: inactive

query: Called result for O=C(Oc1ccccc1)c1cccc(C(=O)Oc2ccccc2)c1
result: inactive

query: Called result for C=CCc1ccc(OC)c(OC)c1
result: inactive

query: Called result for CN(C)CCCN1c2ccccc2Sc2ccc(Cl)cc21
result: inactive

* * *

# ASSAYED_TARGET: human Peroxisome Proliferator-activated Receptor alpha (PPARa), PPARA (gene 5465)
# TEST_DETAILS: ATG_PPARa_TRANS: Attagene TRANS-FACTORIAL HepG2 Assay for human Peroxisome Proliferator-activated Receptor alpha (PPARa) (AID 2283001)
Inconclusive results are not listed. The source made the active and inactive calls. Rule for the calls: active = hit-call score of the fitted dose curve at least 0.9, where 1 is the maximum; inconclusive = response in the unintended direction; inactive = score below 0.9.
Classes to choose from: active, inactive

Recorded results for 2 molecules are shown here.
molecule=CC1=C(C)S(=O)(=O)CCS1(=O)=O category=inactive
molecule=CCCCOC(=O)CCCCC(=O)OCCCC category=inactive

query: Called result for S=c1[nH]c2ccccc2s1
result: inactive

query: Called result for CC(=O)CC(c1ccccc1)c1c(O)c2ccccc2oc1=O (stereo unspecified)
result: inactive

query: Called result for OCC(CO)n1cnc(-c2ccc(F)cc2)c1-c1ccnc(Oc2ccccc2)n1
result: inactive

query: Called result for CCCCCCC(CCCCCCCCCCC(=O)OCC(COC(C)=O)OC(C)=O)OC(C)=O (stereo unspecified)
result: active

* * *

# TEST_DETAILS: ATG_SREBP_CIS: Attagene CIS-FACTORIAL HepG2 Assay for human Sterol Regulatory Element Binding (SREBP) (AID 2282962)
# MEASUREMENT_CONTEXT: HepG2 Attagene cis-factorial SREBP reporter, mRNA; actives raise or lower the signal
# Protocol: ATG_CIS is a cell-based, multiplexed-readout assay that uses HepG2, a human liver cell line, with measurements taken at 24 hours after chemical dosing in a 24-well plate.ATG_SREBP_CIS is one of 52 assay component(s) measured or calculated from the ATG_CIS assay. […] This assay endpoint, ATG_SREBP_CIS, was analyzed with bidirectional fitting relative to DMSO as the negative control and baseline of activity. […]
The source made the active and inactive calls. Rule for the calls: active = hit-call score of the fitted dose curve at least 0.9, where 1 is the maximum; inactive = score below 0.9.
Classes to choose from: active, inactive

Recorded results for 6 molecules are shown here.
molecule=CC(C)c1cccc(C(C)C)c1 category=inactive
molecule=C/C=C/C=C/C(=O)O category=inactive
molecule="CC(C)NCC(O)c1ccc(O)c(O)c1 (centres undefined)" category=inactive
molecule=NC=O category=inactive
molecule=CCN(CC)CCOc1ccc(C(=C(Cl)c2ccccc2)c2ccccc2)cc1 category=active
molecule="CC(COCC(C)OC(=O)c1ccccc1)OC(=O)c1ccccc1 (centres undefined)" category=inactive

query: Called result for CCCCCCC(CCCCCCCCCCC(=O)OCC(COC(C)=O)OC(C)=O)OC(C)=O (centres undefined)
result: inactive

query: Called result for O=C1O[C@H]([C@H](O)CO)C(O)=C1O
result: inactive

query: Called result for C=CCCCCCCCCCCCC
result: inactive

* * *

# TEST_DETAILS: Tanguay_ZF_120hpf_ActivityScore_legacy: (Legacy) Oregon State University Tanguay Lab 120 Hour Post-fertilization zebrafish Assay Score for Activity (AID 2283742)
Calls of active or inactive are those of the source. Rule for the calls: active = hit-call score of the fitted dose curve at least 0.9, where 1 is the maximum; inconclusive = response in the unintended direction; inactive = score below 0.9.
Classes to choose from: active, inactive

Recorded results for 5 compounds are shown here.
compound=CC(=O)OCC(COC(C)=O)OC(C)=O category=inactive
compound=CC(=O)S[C@H](C(=O)N[C@H]1Cc2ccccc2[C@H]2CCC[C@@H](C(=O)O)N2C1=O)C(C)C category=inactive
compound=OCC(O)CO category=inactive
compound=O=C(O)CC(O)(CC(=O)O)C(=O)O category=inactive
compound=Cc1ccc(-c2cc(C(F)(F)F)nn2-c2ccc(S(N)(=O)=O)cc2)cc1 category=inactive

query: Called result for NCCOCCOCCN
result: inactive

* * *

# Read-out: solute carrier (SLCO1B1), SLCO1B1 (gene 10599)
# TEST_DETAILS: LTEA_HepaRG_SLCO1B1: Life Technologies and Expression Analysis (LTEA) Assay for solute carrier (SLCO1B1) using HepaRG (AID 2283530)
# MEASUREMENT_CONTEXT: mRNA level, 48 h; actives raise or lower the signal
The source made the active and inactive calls. Rule for the calls: active = hit-call score of the fitted dose curve at least 0.9, where 1 is the maximum; inactive = score below 0.9.
Classes to choose from: yes (active), no (inactive)

Recorded results for 3 compounds are shown here.
compound=CC(C)c1cccc(C(C)C)c1 category=no
compound=CC(=O)O[C@]1(C(C)=O)CC[C@H]2[C@@H]3C=C(Cl)C4=CC(=O)[C@@H]5C[C@@H]5[C@]4(C)[C@H]3CC[C@@]21C category=yes
compound="CC(=O)CC(c1ccccc1)c1c(O)c2ccccc2oc1=O (stereo not drawn)" category=no

query: Called result for CCN(CC)CCOc1ccc(C(=C(Cl)c2ccccc2)c2ccccc2)cc1
result: yes

query: Called result for CCc1cc(C2=C(C(=O)O)N(c3ccccc3C(F)(F)F)S(=O)(=O)c3ccccc32)cc2c1OCO2
result: yes

query: Called result for Oc1ccccc1O
result: no

* * *

# TEST_DETAILS: ATG_CRE_CIS: Attagene CIS-FACTORIAL HepG2 Assay for human cAMP Responsive Element (CRE) binding protein 3 (AID 2282926)
# MEASUREMENT_CONTEXT: HepG2 CRE cis-reporter, Attagene multiplexed mRNA; actives raise or lower the signal
Active and inactive are the calls of the source. Rule for the calls: active = hit-call score of the fitted dose curve at least 0.9, where 1 is the maximum; inactive = score below 0.9.
Classes to choose from: active, inactive

Recorded results for 6 compounds are shown here.
compound=CO[C@@H]1COCC[C@@H]1N[C@@H]1CC[C@@](C(=O)N2CCc3ncc(C(F)(F)F)cc3C2)(C(C)C)C1 category=inactive
compound=O=C(O)CN(CC(=O)O)CC(=O)O category=inactive
compound=Cc1cc(SC2=C(O)C[C@@](CCc3ccc(N)cc3)(C(C)C)OC2=O)c(C(C)(C)C)cc1CO category=inactive
compound=O=C(O)c1[nH]n(-c2ccc(S(=O)(=O)O)cc2)c(=O)c1N=Nc1ccc(S(=O)(=O)O)cc1 category=inactive
compound=NC=O category=inactive
compound=CC(=O)O[C@]1(C(C)=O)CC[C@H]2[C@@H]3C=C(Cl)C4=CC(=O)[C@@H]5C[C@@H]5[C@]4(C)[C@H]3CC[C@@]21C category=inactive

query: Called result for CCCCCCCCCC[N+](C)(C)[O-]
result: inactive

query: Called result for CC1=C(C)S(=O)(=O)CCS1(=O)=O
result: inactive

* * *

# TEST_DETAILS: CCTE_Padilla_ZF_144hpf_TERATOSCORE: (Legacy) CCTE's 144 Hour Post-fertilization zebrafish Assay Teratoscore, Padilla Lab (AID 2283679)
Calls of active or inactive are those of the source. The calls were made as follows: active = hit-call score of the fitted dose curve at least 0.9, where 1 is the maximum; inactive = score below 0.9.
Classes to choose from: TRUE = active, FALSE = inactive

Recorded results for 4 compounds are shown here.
compound=O=C(O)CN(CC(=O)O)CC(=O)O category=FALSE
compound=CC(C)COC(=O)CCCCC(=O)OCC(C)C category=TRUE
compound=CCCCCCCCCCCCCCOS(=O)(=O)O category=TRUE
compound="CCC(C)N(C)C(=O)c1cc2ccccc2c(-c2ccccc2Cl)n1 (centres undefined)" category=TRUE

query: Called result for CC(=O)CC(c1ccccc1)c1c(O)c2ccccc2oc1=O (centres undefined)
result: TRUE

query: Called result for N[C@@H](Cc1c[nH]c2ccccc12)C(=O)O
result: FALSE

query: Called result for O=Cc1ccccc1C=O
result: TRUE

query: Called result for Cc1c(C)c2c(c(C)c1O)CCC(C)(COc1ccc(CC3SC(=O)NC3=O)cc1)O2 (centres undefined)
result: TRUE

query: Called result for NCCOCCOCCN
result: FALSE

* * *

# ASSAYED_TARGET: CCAAT/enhancer-binding protein beta (Homo sapiens) (UniProt P17676)
# Sequence (P17676 whole entry, looked up): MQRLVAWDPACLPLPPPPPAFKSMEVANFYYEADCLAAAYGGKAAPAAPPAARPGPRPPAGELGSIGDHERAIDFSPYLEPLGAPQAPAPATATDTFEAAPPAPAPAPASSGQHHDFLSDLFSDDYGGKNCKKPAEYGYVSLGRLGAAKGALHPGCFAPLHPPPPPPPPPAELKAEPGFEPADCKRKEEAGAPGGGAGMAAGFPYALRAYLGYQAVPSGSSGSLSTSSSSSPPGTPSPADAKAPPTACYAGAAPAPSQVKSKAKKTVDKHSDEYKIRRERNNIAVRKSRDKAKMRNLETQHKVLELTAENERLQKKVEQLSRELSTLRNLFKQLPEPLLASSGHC
# TEST_DETAILS: ATG_C_EBP_CIS: Attagene CIS-FACTORIAL HepG2 Assay for human CCAAT/Enhancer Binding Protein (C/EBP) beta (AID 2282927)
# MEASUREMENT_CONTEXT: HepG2 Attagene cis-factorial transcription factor reporter; actives raise or lower the signal
The source made the active and inactive calls. The calls were made as follows: active = hit-call score of the fitted dose curve at least 0.9, where 1 is the maximum; inactive = score below 0.9.
Classes to choose from: active, inactive

compound=CC(=O)O[C@]1(C(C)=O)CC[C@H]2[C@@H]3C=C(Cl)C4=CC(=O)[C@@H]5C[C@@H]5[C@]4(C)[C@H]3CC[C@@]21C assayed_target="CCAAT/enhancer-binding protein beta (Homo sapiens) (UniProt P17676)" category=inactive
compound=CC1(C)C(=O)NC(=O)N1CO assayed_target="CCAAT/enhancer-binding protein beta (Homo sapiens) (UniProt P17676)" category=inactive
compound=CN(C)C(=O)NC1(c2ccccc2)CCN(CC[C@@]2(c3ccc(F)c(F)c3)CN(C(=O)c3ccccc3)CCO2)CC1 assayed_target="CCAAT/enhancer-binding protein beta (Homo sapiens) (UniProt P17676)" category=inactive
compound=Cc1cn([C@H]2C=C[C@@H](CO)O2)c(=O)[nH]c1=O assayed_target="CCAAT/enhancer-binding protein beta (Homo sapiens) (UniProt P17676)" category=inactive
compound=O=C1CCCCC1 assayed_target="CCAAT/enhancer-binding protein beta (Homo sapiens) (UniProt P17676)" category=inactive

query: Called result for CC(=O)[C@@]1(O)CC[C@H]2[C@@H]3CCC4=CC(=O)CC[C@]4(C)[C@H]3CC[C@@]21C
result: inactive

query: Called result for CCCCOC(=O)CCCCC(=O)OCCCC
result: inactive

query: Called result for CCCCCCC(C=O)=Cc1ccccc1
result: inactive

query: Called result for O=C(O)c1[nH]n(-c2ccc(S(=O)(=O)O)cc2)c(=O)c1N=Nc1ccc(S(=O)(=O)O)cc1
result: inactive

query: Called result for c1ccc2occc2c1
result: inactive

query: Called result for COC(=O)CCC(=O)OC
result: inactive

query: Called result for O=C(O)CN(CC(=O)O)CC(=O)O
result: inactive

query: Called result for CCCC[C@H]1CN(CC2CCOCC2)C(=O)OC12CCN(C1(C)CCN(C(=O)c3c(C)ncnc3C)CC1)CC2
result: inactive

query: Called result for CC(=O)OCC(COC(C)=O)OC(C)=O
result: inactive

query: Called result for Cc1ccc(-c2cc(C(F)(F)F)nn2-c2ccc(S(N)(=O)=O)cc2)cc1
result: inactive

query: Called result for CC(=O)CC(c1ccccc1)c1c(O)c2ccccc2oc1=O (configuration not stated)
result: inactive

query: Called result for CC(=O)O
result: inactive

query: Called result for O=C(O)c1cccnc1
result: inactive

query: Called result for CC(C)COC(=O)CCCCC(=O)OCC(C)C
result: inactive

query: Called result for CCCCC(CC)COC(=O)CCCCCCCC(=O)OCC(CC)CCCC (configuration not stated)
result: inactive

query: Called result for O=NO
result: inactive

query: Called result for Nc1nc(Cl)nc2c1ncn2[C@H]1C[C@H](O)[C@@H](CO)O1
result: inactive

query: Called result for COC(=O)CCCC(=O)OC
result: inactive
